Values compiled from paper PMC10397247.

# Subject Of Test: T1, 4H906-bA
# T1 chain: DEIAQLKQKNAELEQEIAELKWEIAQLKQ
# Protocol Description: two-hybrid library CCNG1;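 note: natural log of median RNA to DNA barcode read ratio; higher means stronger binding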
Measurement Label: interaction score

{"Binder": "DKNAQLKQENAELKQKIAELKWEIAQLEQ [4H3817-bA]", "Measurement Label": "interaction score", "Observed Result": -0.916}
{"Binder": "DENAQLKQKNAELKQEIAELEWEIAQLEQ [4H1985-bA]", "Measurement Label": "interaction score", "Observed Result": -1.08}
{"Binder": "DEIAQLKQEIAELKQKNAELEWEIAQLKQ [4H626-bA]", "Measurement Label": "interaction score", "Observed Result": -1.23}
